target: EGFR on EGFR positive non-small cell lung cancer cells NCI-H1650 (UniProt P00533 25-1210); experiment: cell-based or functional assay
outcomeMeasure: H1650 CTG-3D EC50 (µg/mL)
Reply numerically in µg/mL, unit not repeated.

## Input Which H1650 CTG-3D EC50 value is on record for AbA-ZZ (antibody, human IgG1, kappa, V domains shown, synthon ZZ on reduced interchain cysteines; average DAR 1.3 per ADC) VH: EVQLQESGPGLVKPSQTLSLTCTVSGYSISRDFAWNWIRQPPGKGLEWMGYISYNGNTRYQPSLKSRITISRDTSKNQFFLKLNSVTAADTATYYCVTASRGFPYWGQGTLVTVSS VL: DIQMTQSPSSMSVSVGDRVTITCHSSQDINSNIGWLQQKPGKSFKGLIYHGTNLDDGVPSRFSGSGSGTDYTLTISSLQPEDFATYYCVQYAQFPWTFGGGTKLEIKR ?
## Output 1.86
